system_name: Chk1 (Homo sapiens)
Sequence (O14757 whole entry): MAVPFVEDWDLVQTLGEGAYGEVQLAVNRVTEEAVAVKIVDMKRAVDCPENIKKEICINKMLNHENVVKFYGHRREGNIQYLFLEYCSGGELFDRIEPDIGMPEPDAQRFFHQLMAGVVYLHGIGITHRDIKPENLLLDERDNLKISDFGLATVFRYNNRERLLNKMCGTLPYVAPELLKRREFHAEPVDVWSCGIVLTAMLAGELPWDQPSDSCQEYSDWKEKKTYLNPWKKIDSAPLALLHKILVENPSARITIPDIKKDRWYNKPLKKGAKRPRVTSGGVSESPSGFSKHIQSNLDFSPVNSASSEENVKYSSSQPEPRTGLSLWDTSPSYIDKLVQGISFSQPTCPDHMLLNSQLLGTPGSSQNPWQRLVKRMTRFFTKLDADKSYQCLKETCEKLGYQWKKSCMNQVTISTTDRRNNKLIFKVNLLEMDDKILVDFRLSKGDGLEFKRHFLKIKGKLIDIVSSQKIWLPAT
experiment_notes: Chk1 kinase assay, phosphorylation of Chktide (33P-ATP filtration)
Type: biochemical
run_parameters: Table 3; 0.01 mM ATP; read-out: Chk1 IC50
assay_endpoint: pIC50
Give bare numbers, as −log10 of the molar value.

Example results:
compound: O=S(=O)(c1ccc(Nc2cc(-c3cccc(F)c3)n3ncnc3n2)cc1)N1CCOCC1 [Example 130]
pIC50: 4.57

compound: NC(=O)c1ccc(Nc2cc(-c3ccc4ccccc4c3)n3ncnc3n2)cc1 [Example 136]
pIC50: 4.86

compound: NC(=O)c1ccc(Nc2cc(Cc3ccccc3)n3ncnc3n2)cc1 [Example 123]
pIC50: 4.50

compound: Cc1cccc(-c2cc(Nc3ccc(N4CCOCC4)cc3)nc3ncnn23)c1 [Example 106]
pIC50: 4.20

compound: Fc1cccc(-c2cc(Nc3ccc(N4CCOCC4)cc3)nc3ncnn23)c1 [Example 113]
pIC50: 5.25

Would you mind listing pIC50 for each of the following compounds?
1. CCN(CC)CCNC(=O)c1ccc(Nc2cc(C)n3ncnc3n2)cc1 [Example 120]
2. CCN(CC)CCNC(=O)c1ccc(Nc2cc(Cc3ccccc3OC)n3ncnc3n2)cc1 [Example 125]
3. CS(=O)(=O)c1ccc(Nc2cc(-c3cccc(F)c3)n3ncnc3n2)cc1 [Example 119]

Completion:
[6.09, 4.43, 5.59]

====

system_name: UniProtKB O15530
Sequence (O15530 1-556): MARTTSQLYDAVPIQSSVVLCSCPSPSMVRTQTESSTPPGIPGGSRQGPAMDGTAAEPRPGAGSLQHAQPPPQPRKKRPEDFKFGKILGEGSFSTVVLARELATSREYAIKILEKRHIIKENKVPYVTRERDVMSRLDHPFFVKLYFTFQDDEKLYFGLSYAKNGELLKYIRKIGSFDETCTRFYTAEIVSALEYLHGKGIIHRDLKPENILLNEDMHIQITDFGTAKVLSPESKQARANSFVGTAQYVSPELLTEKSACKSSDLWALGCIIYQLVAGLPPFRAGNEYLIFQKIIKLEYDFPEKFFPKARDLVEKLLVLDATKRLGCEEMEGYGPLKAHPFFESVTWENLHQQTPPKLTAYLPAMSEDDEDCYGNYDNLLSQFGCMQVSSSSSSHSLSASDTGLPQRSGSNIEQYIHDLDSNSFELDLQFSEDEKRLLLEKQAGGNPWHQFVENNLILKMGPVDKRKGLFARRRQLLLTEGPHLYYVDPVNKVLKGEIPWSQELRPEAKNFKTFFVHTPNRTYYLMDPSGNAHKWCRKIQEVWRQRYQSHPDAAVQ
experiment_notes: PDK1 3'-phosphoinositide-dependent kinase assay, phosphorylation of synthetic peptide (33P-ATP filtration)
Assay type: biochemical
pIC50: −log10 of the molar value.
assay_endpoint: pIC50

Prompt: Find the recorded pIC50 belonging to `Brc1cccc(-c2cc(NCc3ccncc3)n3ncnc3n2)c1` and report it.
Completion: < 3.70

====

Please go through the items and note down their log10 IC50.
system_name: PDK1 enzyme (Homo sapiens, UniProt O15530)
experiment_notes: PDK1 3'-phosphoinositide-dependent kinase assay, phosphorylation of synthetic peptide (33P-ATP filtration)
Format: biochemical
run_parameters: Table 3; 0.01 mM ATP; read-out: PDK1 IC50
Answers are given as log10 of IC50 in µM.

I would be grateful if you could provide log10 IC50 for each of the following entries.
1. Cc1cccc(-c2cc(Nc3ccc(N4CCOCC4)cc3)nc3ncnn23)c1
2. CS(=O)(=O)c1ccc(Nc2cc(-c3cccc(F)c3)n3ncnc3n2)cc1
3. COc1ccc(C)cc1-c1cc(Nc2ccc(C(N)=O)cc2)nc2ncnn12
4. CCOC(=O)Cc1ccc(Nc2cc(-c3cccc(F)c3)n3ncnc3n2)cc1
5. OCCc1ccc(Nc2cc(-c3cccc(F)c3)n3ncnc3n2)cc1
6. O=S(=O)(c1ccc(Nc2cc(-c3cccc(F)c3)n3ncnc3n2)cc1)N1CCOCC1
7. Cc1cccc(-c2cc(Nc3ccc(C(N)=O)cc3)nc3ncnn23)c1
8. CN(C)S(=O)(=O)c1ccc(Nc2cc(-c3cccc(F)c3)n3ncnc3n2)cc1

Completion:
1.37
2.06
1.03
0.35
1.72
1.53
0.61
1.49

Could you tell me log10 IC50 for each of these compounds? They are listed below.
1. NC(=O)c1ccc(Nc2cc(-c3ccc4ccccc4c3)n3ncnc3n2)cc1
2. NS(=O)(=O)c1ccc(Nc2cc(-c3cccc(F)c3)n3ncnc3n2)cc1
3. Fc1cccc(-c2cc(Nc3ccc(N4CCOCC4)cc3)nc3ncnn23)c1
4. NC(=O)c1ccc(Nc2cc(-c3ccc4c(c3)OCO4)n3ncnc3n2)cc1
5. CCN(CC)CCNC(=O)c1ccc(Nc2cc(-c3ccccc3)n3ncnc3n2)cc1
6. NC(=O)Cc1ccc(Nc2cc(-c3cccc(F)c3)n3ncnc3n2)cc1
7. Cc1cccc(-c2cc(Nc3ccc(CCO)cc3)nc3ncnn23)c1
8. CCN(CC)CCNC(=O)c1ccc(Nc2cc(-c3ccc4c(c3)OCO4)n3ncnc3n2)cc1

Completion:
1. 1.97
2. 0.80
3. 1.67
4. 1.46
5. 1.19
6. 0.05
7. 1.17
8. 0.26

The origin of these recorded values is patent US20070275961A1.
